System: NCI-H647
Assay: relative viability (nuclei count vs DMSO), 5 days (fraction); higher = more cells survive
Conditions: first compound 1 µM
Give relative viability for every item shown.
Give bare numbers.

Record excerpt, results attached:
CCN(CC)CCCCNc1ncc2cc(-c3cc(OC)cc(OC)c3)c(NC(=O)NC(C)(C)C)nc2n1 + CC1(C)CCC(c2ccc(Cl)cc2)=C(CN2CCN(c3ccc(C(=O)NS(=O)(=O)c4ccc(N[C@H](CCN5CCOCC5)CSc5ccccc5)c(S(=O)(=O)C(F)(F)F)c4)cc3)CC2)C1 [Navitoclax] (partner 0.5 µM) :: 0.929
O=c1cc(N2CCOCC2)oc2c(-c3cccc4c3sc3ccccc34)cccc12 + Nc1ncn([C@H]2C[C@H](O)[C@@H](CO)O2)c(=O)n1 [Decitabine] (partner 2 µM) :: 0.371
O=c1cc(N2CCOCC2)oc2c(-c3cccc4c3sc3ccccc34)cccc12 + Nc1nc2[nH]cc(CCc3ccc(C(=O)N[C@@H](CCC(=O)O)C(=O)O)cc3)c2c(=O)[nH]1 [Pemetrexed] (partner 0.2 µM) :: 0.178

Now for the compound whose relative viability we want.
Output measured relative viability for this item: O=c1cc(N2CCOCC2)oc2c(-c3cccc4c3sc3ccccc34)cccc12 + CC1(C)CCC(c2ccc(Cl)cc2)=C(CN2CCN(c3ccc(C(=O)NS(=O)(=O)c4ccc(N[C@H](CCN5CCOCC5)CSc5ccccc5)c(S(=O)(=O)C(F)(F)F)c4)cc3)CC2)C1 [Navitoclax] (partner 0.5 µM)
1.1

###

Test system: RERF-LC-KJ
Experiment: relative viability (nuclei count vs DMSO), 5 days (fraction); higher = more cells survive
Details: first compound 6.325 µM
Task for the reader: assign each of the following compounds its reported relative viability.
Give bare numbers.

// known answers, use as guide
COCC1(CO)C(=O)C2CCN1CC2 (stereo unspecified) [PRIMA-1MET] + CCNC(=O)c1noc(-c2cc(C(C)C)c(O)cc2O)c1-c1ccc(CN2CCOCC2)cc1 [Luminespib] (partner 0.01 µM) :: 1.37
COCC1(CO)C(=O)C2CCN1CC2 (stereo unspecified) [PRIMA-1MET] + COc1cc2c(Oc3ccc(NC(=O)C4(C(=O)Nc5ccc(F)cc5)CC4)cc3F)ccnc2cc1OCCCN1CCOCC1 [Foretinib] (partner 0.25 µM) :: 0.957
COCC1(CO)C(=O)C2CCN1CC2 (stereo unspecified) [PRIMA-1MET] + Nc1ncn([C@H]2C[C@H](O)[C@@H](CO)O2)c(=O)n1 [Decitabine] (partner 2 µM) :: 0.69
COCC1(CO)C(=O)C2CCN1CC2 (stereo unspecified) [PRIMA-1MET] + NC(=O)Nc1cc(-c2cccc(F)c2)sc1C(=O)N[C@H]1CCCNC1 [AZD7762] (partner 0.2 µM) :: 1.04
COCC1(CO)C(=O)C2CCN1CC2 (stereo unspecified) [PRIMA-1MET] + Cc1nc(NC(=O)N2CCC[C@H]2C(N)=O)sc1-c1ccnc(C(C)(C)C(F)(F)F)c1 [Alpelisib] (partner 2 µM) :: 1.01

In the following, a different compound is considered.
For the compound COCC1(CO)C(=O)C2CCN1CC2 (stereo unspecified) [PRIMA-1MET] + O=C(c1cc(Cc2n[nH]c(=O)c3ccccc23)ccc1F)N1CCN(C(=O)C2CC2)CC1 [Olaparib] (partner 8 µM) , give its reported relative viability.
1.09

###

Tested on: RERF-LC-KJ
Experiment: relative viability (nuclei count vs DMSO), 5 days (fraction); higher = more cells survive
Details: first compound 0.01 µM
ENDPOINT: relative viability
One number for each entry.

CCN(CC)CCCCNc1ncc2cc(-c3cc(OC)cc(OC)c3)c(NC(=O)NC(C)(C)C)nc2n1 + CC(C)C[C@H](NC(=O)[C@H](Cc1ccccc1)NC(=O)c1cnccn1)B(O)O [Bortezomib] (partner 0.002 µM) :: 1.17

Let us move to another entry and its relative viability.
Give RERF-LC-KJ relative viability for the following compound: CCN(CC)CCCCNc1ncc2cc(-c3cc(OC)cc(OC)c3)c(NC(=O)NC(C)(C)C)nc2n1 + Nc1nc2[nH]cc(CCc3ccc(C(=O)N[C@@H](CCC(=O)O)C(=O)O)cc3)c2c(=O)[nH]1 [Pemetrexed] (partner 0.2 µM)
0.497

###

System: NCI-H2126
Assay: relative viability (nuclei count vs DMSO), 5 days (fraction); higher = more cells survive
Conditions: first compound 6.325 µM
Field 'label' (enum: T / F). Set to T when relative viability is strictly under 0.8; else F.

Examples from the recorded data:
COCC1(CO)C(=O)C2CCN1CC2 (configuration not stated) [PRIMA-1MET] + Cc1nc(Nc2ncc(C(=O)Nc3c(C)cccc3Cl)s2)cc(N2CCN(CCO)CC2)n1 [Dasatinib] (partner 0.075 µM) :: T
COCC1(CO)C(=O)C2CCN1CC2 (configuration not stated) [PRIMA-1MET] + O=C(CCCCCCC(=O)Nc1ccccc1)NO [Vorinostat] (partner 1 µM) :: T
COCC1(CO)C(=O)C2CCN1CC2 (configuration not stated) [PRIMA-1MET] + C[C@@H](Oc1cc(-c2cnn(C3CCNCC3)c2)cnc1N)c1c(Cl)ccc(F)c1Cl [Crizotinib] (partner 1 µM) :: F
COCC1(CO)C(=O)C2CCN1CC2 (configuration not stated) [PRIMA-1MET] + NC(=O)Nc1cc(-c2cccc(F)c2)sc1C(=O)N[C@H]1CCCNC1 [AZD7762] (partner 0.2 µM) :: F
COCC1(CO)C(=O)C2CCN1CC2 (configuration not stated) [PRIMA-1MET] + CC(=O)Nc1cccc(-n2c(=O)n(C3CC3)c(=O)c3c(Nc4ccc(I)cc4F)n(C)c(=O)c(C)c32)c1 [Trametinib] (partner 0.02 µM) :: T

Consider now this further compound.
Please state whether relative viability is below 0.8 for COCC1(CO)C(=O)C2CCN1CC2 (configuration not stated) [PRIMA-1MET] + COc1cc2c(Oc3ccc(NC(=O)C4(C(=O)Nc5ccc(F)cc5)CC4)cc3F)ccnc2cc1OCCCN1CCOCC1 [Foretinib] (partner 0.25 µM)
F

###

System: NCI-H647
Assay: relative viability (nuclei count vs DMSO), 5 days (fraction); higher = more cells survive
Conditions: first compound 6.325 µM
ENDPOINT: relative viability
Answers are plain numbers.

Here's what some known entries look like.
COCC1(CO)C(=O)C2CCN1CC2 (stereo not drawn) [PRIMA-1MET] + O=C(c1cc(Cc2n[nH]c(=O)c3ccccc23)ccc1F)N1CCN(C(=O)C2CC2)CC1 [Olaparib] (partner 8 µM) :: 0.607
COCC1(CO)C(=O)C2CCN1CC2 (stereo not drawn) [PRIMA-1MET] + CC(=O)c1c(C)c2cnc(Nc3ccc(N4CCNCC4)cn3)nc2n(C2CCCC2)c1=O [Palbociclib] (partner 0.5 µM) :: 0.481
COCC1(CO)C(=O)C2CCN1CC2 (stereo not drawn) [PRIMA-1MET] + Cc1cc(Nc2cc(N3CCN(C)CC3)nc(Sc3ccc(NC(=O)C4CC4)cc3)n2)n[nH]1 [Tozasertib] (partner 0.1 µM) :: 0.543
COCC1(CO)C(=O)C2CCN1CC2 (stereo not drawn) [PRIMA-1MET] + CCNC(=O)c1noc(-c2cc(C(C)C)c(O)cc2O)c1-c1ccc(CN2CCOCC2)cc1 [Luminespib] (partner 0.01 µM) :: 0.219
COCC1(CO)C(=O)C2CCN1CC2 (stereo not drawn) [PRIMA-1MET] + CS(=O)(=O)CCNCc1ccc(-c2ccc3ncnc(Nc4ccc(OCc5cccc(F)c5)c(Cl)c4)c3c2)o1 [Lapatinib] (partner 2 µM) :: 1.29
COCC1(CO)C(=O)C2CCN1CC2 (stereo not drawn) [PRIMA-1MET] + N=C(N)NC(=N)NCCc1ccccc1 [Phenformin] (partner 250 µM) :: 0.514
COCC1(CO)C(=O)C2CCN1CC2 (stereo not drawn) [PRIMA-1MET] + Cc1nc(NC(=O)N2CCC[C@H]2C(N)=O)sc1-c1ccnc(C(C)(C)C(F)(F)F)c1 [Alpelisib] (partner 2 µM) :: 1.09

# context switch: different compound, same relative viability
Param request: relative viability | system NCI-H647 | item COCC1(CO)C(=O)C2CCN1CC2 (stereo not drawn) [PRIMA-1MET] + C[C@@H](Oc1cc(-c2cnn(C3CCNCC3)c2)cnc1N)c1c(Cl)ccc(F)c1Cl [Crizotinib] (partner 1 µM)
1.08

###

System: PC-3 [JPC-3]
Assay: relative viability (nuclei count vs DMSO), 5 days (fraction); higher = more cells survive
Details: first compound 0.03162 µM
Consider the following compounds; for each one, report its relative viability.
Numbers only.

Go through the list and state relative viability for each entry.
1. CCN(CC)CCCCNc1ncc2cc(-c3cc(OC)cc(OC)c3)c(NC(=O)NC(C)(C)C)nc2n1 + COc1cccc2cc(-c3nc([C@H]4CC[C@H](C(=O)O)CC4)n4ncnc(N)c34)[nH]c12 [OSI-027] (partner 0.5 µM)
2. O=c1cc(N2CCOCC2)oc2c(-c3cccc4c3sc3ccccc34)cccc12 + Cc1nc(NC(=O)N2CCC[C@H]2C(N)=O)sc1-c1ccnc(C(C)(C)C(F)(F)F)c1 [Alpelisib] (partner 2 µM)
3. O=c1cc(N2CCOCC2)oc2c(-c3cccc4c3sc3ccccc34)cccc12 + CC(=O)c1c(C)c2cnc(Nc3ccc(N4CCNCC4)cn3)nc2n(C2CCCC2)c1=O [Palbociclib] (partner 0.5 µM)
4. CCN(CC)CCCCNc1ncc2cc(-c3cc(OC)cc(OC)c3)c(NC(=O)NC(C)(C)C)nc2n1 + CS(=O)(=O)CCNCc1ccc(-c2ccc3ncnc(Nc4ccc(OCc5cccc(F)c5)c(Cl)c4)c3c2)o1 [Lapatinib] (partner 2 µM)

[0.796, 1.05, 0.519, 0.453]
